B1: C1orf55 (parent)
chain: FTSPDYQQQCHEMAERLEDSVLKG

# Variants of: B1
# procedure details: protein stability index of a GFP-peptide fusion (GPS, HEK-293T) (PSI 1-6); higher = more stable;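 note: lentivirally expressed fusions sorted by FACS into six bins by GFP to DsRed ratio, PSI derived from sequencing read proportions per bin multiplied by bin number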
# settings: c terminus: a fixed tail appended
For each record, write down the corresponding protein stability index.
Note: the reply should be a number with no unit written.

[Q] Dear colleague, please send me the reported protein stability index for `L22C` when you can.
[A] 2.62

[Q] Dear colleague, please send me the reported protein stability index for `E15G` when you can.
[A] 2.25

[Q] Dear colleague, please send me the reported protein stability index for `Q8V` when you can.
[A] 2.47

[Q] Dear colleague, please send me the reported protein stability index for `H11R` when you can.
[A] 2.45

[Q] Dear colleague, please send me the reported protein stability index for `Q7H` when you can.
[A] 2.14

[Q] Dear colleague, please send me the reported protein stability index for `Y6A` when you can.
[A] 4.56

[Q] Dear colleague, please send me the reported protein stability index for `S3A` when you can.
[A] 2.89

[Q] Dear colleague, please send me the reported protein stability index for `G24W` when you can.
[A] 1.78

[Q] Dear colleague, please send me the reported protein stability index for `D5Y` when you can.
[A] 2.28

[Q] Dear colleague, please send me the reported protein stability index for `L17C` when you can.
[A] 2.25

[Q] Dear colleague, please send me the reported protein stability index for `H11Y` when you can.
[A] 1.87

[Q] Dear colleague, please send me the reported protein stability index for `G24H` when you can.
[A] 1.52

[Q] Dear colleague, please send me the reported protein stability index for `V21N` when you can.
[A] 2.94

[Q] Dear colleague, please send me the reported protein stability index for `E15C` when you can.
[A] 1.96

[Q] Dear colleague, please send me the reported protein stability index for `D19S` when you can.
[A] 2.87

[Q] Dear colleague, please send me the reported protein stability index for `E18M` when you can.
[A] 1.97

[Q] Dear colleague, please send me the reported protein stability index for `M13K` when you can.
[A] 2.79

[Q] Dear colleague, please send me the reported protein stability index for `K23G` when you can.
[A] 2.38

[Q] Dear colleague, please send me the reported protein stability index for `Q8W` when you can.
[A] 2.04

[Q] Dear colleague, please send me the reported protein stability index for `D19Y` when you can.
[A] 1.91

[Q] Dear colleague, please send me the reported protein stability index for `Q8N` when you can.
[A] 2.62

[Q] Dear colleague, please send me the reported protein stability index for `G24P` when you can.
[A] 2

[Q] Dear colleague, please send me the reported protein stability index for `G24R` when you can.
[A] 1.87

[Q] Dear colleague, please send me the reported protein stability index for `Q9A` when you can.
[A] 1.95

[Q] Dear colleague, please send me the reported protein stability index for `D19M` when you can.
[A] 2.08

[Q] Dear colleague, please send me the reported protein stability index for `S20R` when you can.
[A] 2.47

[Q] Dear colleague, please send me the reported protein stability index for `A14W` when you can.
[A] 2.1

[Q] Dear colleague, please send me the reported protein stability index for `L17E` when you can.
[A] 2.97

[Q] Dear colleague, please send me the reported protein stability index for `E12W` when you can.
[A] 1.85
